- Tested on: Msh3
- test-summary: Yeast two hybrid (Y2H) analysis of PCNA-partner interaction
- Type: binding
- Parameters: key: ++: major increase in growth; +: moderate increase in growth; similar growth as the WT PCNA-expressing cells; -: minor decrease in growth; --: moderate decrease in growth; ---: major decrease in growth
- test-parameters: spotting onto selective agar plates; PCNA fused to AD, partner to BD
reported-property: Y2H growth relative to WT PCNA-expressing strain: Msh3

[[record]]
molecule = "pol30-Msh6E2: PCNA mutant evolved for Msh6, IDCL sequence DYDRDMLKISEL (protein, left off: Gal4 activation domain, end not stated, kept) MLEAKFEEASLFKRIIDGFKDCVQLVNFQCKEDGIIAQAVDDSRVLLVSLEIGVEAFQEYRCDHPVTLGMDLTSLSKILRCGNNTDTLTLIADNTPDSIILLFEDTKKDRIAEYSLKLMDYDRDMLKISELQYDSTLSLPSSEFSKIVRDLSQLSDSINIMITKETIKFVADGDIGSGSVIIKPFVDMEHPETSIKLEMDQPVDLTFGAKYLLDIIKGSSLSDRVGIRLSSEAPALFQFDLKSGFLQFFLAPKFNDEE"
experimental_result = "+"

[[record]]
molecule = "pol30-Rad30E2: PCNA mutant evolved for Rad30, IDCL sequence DDDWDFLKILEL (protein, left off: Gal4 activation domain, end not stated, kept) MLEAKFEEASLFKRIIDGFKDCVQLVNFQCKEDGIIAQAVDDSRVLLVSLEIGVEAFQEYRCDHPVTLGMDLTSLSKILRCGNNTDTLTLIADNTPDSIILLFEDTKKDRIAEYSLKLMDDDWDFLKILELQYDSTLSLPSSEFSKIVRDLSQLSDSINIMITKETIKFVADGDIGSGSVIIKPFVDMEHPETSIKLEMDQPVDLTFGAKYLLDIIKGSSLSDRVGIRLSSEAPALFQFDLKSGFLQFFLAPKFNDEE"
experimental_result = "WT"

